src = patent US20250042994A1

system: T1, Human CD19-his protein (human, UniProt P15391 20-291)
T1 construct: bought protein; also called recombinant human CD19-His; CD19 full-length protein; not shown: His tag
T1 sequence (looked up): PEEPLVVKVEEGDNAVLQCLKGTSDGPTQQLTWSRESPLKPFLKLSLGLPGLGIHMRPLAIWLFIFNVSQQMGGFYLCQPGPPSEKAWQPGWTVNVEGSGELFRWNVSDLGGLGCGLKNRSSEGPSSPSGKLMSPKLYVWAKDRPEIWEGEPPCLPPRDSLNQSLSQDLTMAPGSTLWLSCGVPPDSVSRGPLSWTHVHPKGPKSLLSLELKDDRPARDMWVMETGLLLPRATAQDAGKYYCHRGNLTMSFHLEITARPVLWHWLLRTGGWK
method: SPR Biacore, Ab captured on Protein A, CD19-His analyte
Listed binders paired with reported kon
measured-parameter: kon (M⁻¹ s⁻¹)

* F3.81.2 (antibody, human IgG1, V domains shown, human-murine chimeric antibody, human IgG1 constant) VH: QVQLQQPGAELVMPGASVKLSCKASAYTFTNYWMHWVKQRPGHGLEWIGEIDPSDSYTDYNQNFKAKATLTVDKSSSTAYMQLSSLTSEDSAVYYCARLMGRYFDVWGTGTTVTVSS VL: DIVMTQSHKFMSTSVGDRVSITCKASQDVSAAVAWYQQKPGQSPKLLINSASYRYTGVPDRFTGSGSGTDFTFTISSVQAEDLAVYYCQQHYSTPLTFGAGTKLELR | 135000
* F4.18.13 (antibody, human IgG1, V domains shown, human-murine chimeric antibody, human IgG1 constant) VH: QVQLQQSGPELVKPGASVKISCKASGYAFSSFWMNWVKQRPGEGLEWIGRIYPGDGDTNYNGKFKGKATLTADDSSSTAYMQLSSLTSVDSAVYFCAREVIAAVVTTDFDYWGQGTTLTVSS VL: DIQMTQTTSSLSASLGDRVTISCRTSQDISNYLNWYLQKPDGTVKLLIYYTSGLHSGVPSRFSGSGSGTDYSLTISNLEPEDIATYFCQQGKTLPYTFGGGTKLEIK | 472000
* F3.113.16 (antibody, human IgG1, V domains shown, human-murine chimeric antibody, human IgG1 constant) VH: QVQLQQPGAELVKPGASVKLSCKASGYTFTNYWMQWVKQRPGQGLEWIGEIDPSDSYINYNQKFKGKATLTADTSSSTAYMQLSSLTYEDSAVYYCARPVTVPWYFDVWGTGTTVTVSS VL: EIVLTQSPTTMAASPGEKITITCSATSSISSNYLHWYQQKPGFSPKLLIYRTSNLASGVPARFSGSGSGTSYSLTIGTMEAEDVATYYCQQGSAIPRIFTFGSGTKLEIK | 84800
* F3.13.2 (antibody, human IgG1, V domains shown, human-murine chimeric antibody, human IgG1 constant) VH: DVQLQESGPGLMKPSQSLSLTCSVTGYSITSGYYWNWIRQFPGNKLEWMGYISYDGSNNYNPSLKNRFSITRDTSKNQFFLKLNSVTTEDTATYYCARRKLTGGPYFDYWGQGTTLTVSS VL: DIVLTQSPASLAVTLGQRATISCRASESVSFHGFHIMHWYQQKPGQPPKLLIYAASHLVSGVPDRFSGSGSETDFTLNIHPVEEEDAAAYFCQQSVEDPWTFGGGTKLEIK | 64700
* F4.78.1 (antibody, human IgG1, V domains shown, human-murine chimeric antibody, human IgG1 constant) VH: QVQIQQSGAELARPGASVKLSCKASGYTFTNYWMQWIKQRPGQGLEWIGAIYPGDGDTRYTQKFKGKATLTADKSSSTAYMQLSSLASEDSAVYYCAREEVWSPYGMDYWGQGTSVTVSS VL: QIVLTQSPAIMSASPGEKVTITCSASSSVSYMGWFQQKPGTSPKLWIYSTSNLASGVPARFSGSGSGTSYSLTISRMEAEDAATYYCQQRSIYPLTFGAGTKLELK | 184000
